- Tested on: RXF 393 renal
- Assay: NCI tumour cell line growth inhibition, 48 h; in the data active means GI50 below about 0.43 µM; inactive means the rest
Answer with one of the outcomes given here: active, inactive

Field: example entries. Status: answers known.
| Molecular String | Assigned Label |
| --- | --- |
| O=C(/C=C/c1cc([N+](=O)[O-])ccc1Cl)c1ccccc1 | inactive |
| COc1ccc(Cn2cc3c(c2-c2ccc(OC)cc2)CCc2cnoc2-3)cc1 | active |
| CN(C)c1ccc(Nc2cc(-c3cccc(OC(F)(F)F)c3)nc3ccc(N4CCCC4)cc23)cc1 | inactive |
| CC1(C)[C@@H](O[C@@H]2OC[C@@H](O[C@@H]3O[C@H](CO)[C@@H](O)[C@H](O)[C@H]3O[C@@H]3OC[C@@H](O)[C@H](O)[C@H]3O)[C@H](O)[C@H]2O[C@@H]2O[C@H](CO)[C@@H](O)[C@H](O)[C@H]2O)CC[C@]2(C)[C@H]3CC[C@]45OC[C@@]6(CC[C@](C)(C=O)C[C@H]64)[C@H](O)C[C@@]5(C)[C@]3(C)CC[C@@H]12 | inactive |
| CN(CC(=O)N(Cc1ccc(C2CCCCC2)cc1)c1ccc(C(=O)O)c(O)c1)S(=O)(=O)c1c(F)c(F)c(F)c(F)c1F | inactive |
| COc1ccc(-c2nc3ccccn3c2/C=C/C(=O)c2cc(OC)c(OC)c(OC)c2)cc1 | inactive |

Query: Recorded test outcome, item COc1ccc(OC)c(/C=C(/C)[N+](=O)[O-])c1
Result: inactive
